- TARGET_DESC: NLRP3 inflammasome (Homo sapiens, UniProt Q96P20)
- Sequence (Q96P20 whole entry): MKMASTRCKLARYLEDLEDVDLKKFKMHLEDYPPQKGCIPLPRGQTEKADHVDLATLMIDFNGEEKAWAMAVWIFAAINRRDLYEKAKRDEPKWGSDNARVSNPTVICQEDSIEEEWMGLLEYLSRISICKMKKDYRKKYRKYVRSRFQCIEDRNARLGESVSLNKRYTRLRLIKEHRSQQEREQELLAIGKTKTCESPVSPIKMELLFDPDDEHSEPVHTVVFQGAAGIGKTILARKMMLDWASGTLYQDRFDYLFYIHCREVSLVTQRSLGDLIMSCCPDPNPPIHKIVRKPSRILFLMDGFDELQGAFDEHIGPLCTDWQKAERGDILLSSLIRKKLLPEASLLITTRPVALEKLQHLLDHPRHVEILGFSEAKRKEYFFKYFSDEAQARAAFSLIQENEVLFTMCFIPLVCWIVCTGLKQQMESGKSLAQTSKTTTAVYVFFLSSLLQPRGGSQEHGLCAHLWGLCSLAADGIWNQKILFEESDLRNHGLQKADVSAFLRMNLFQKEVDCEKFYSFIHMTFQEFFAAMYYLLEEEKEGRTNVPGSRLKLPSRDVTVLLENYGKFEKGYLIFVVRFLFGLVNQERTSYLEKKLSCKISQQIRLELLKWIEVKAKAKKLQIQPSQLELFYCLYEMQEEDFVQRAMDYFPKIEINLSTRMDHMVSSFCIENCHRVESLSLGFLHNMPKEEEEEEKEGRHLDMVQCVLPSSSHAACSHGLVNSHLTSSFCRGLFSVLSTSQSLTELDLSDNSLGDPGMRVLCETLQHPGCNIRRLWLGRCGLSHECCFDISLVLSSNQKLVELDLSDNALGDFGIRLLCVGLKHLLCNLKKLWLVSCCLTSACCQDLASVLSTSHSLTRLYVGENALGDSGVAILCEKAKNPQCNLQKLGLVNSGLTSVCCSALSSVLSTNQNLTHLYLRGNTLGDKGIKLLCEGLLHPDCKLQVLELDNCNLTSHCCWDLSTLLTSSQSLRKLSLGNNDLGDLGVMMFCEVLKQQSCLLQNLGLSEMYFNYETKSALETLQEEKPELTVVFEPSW
- EXPERIMENT: THP-1 ASC-GFP speck assay
- Type: cell-based
- Set-up: host or cells: THP-1 ASC-GFP cells, PMA-differentiated, LPS-primed, nigericin-stimulated
- DETAILS: THP-1 ASC-GFP cells, PMA differentiated, LPS primed, 10 μM nigericin; read-out: THP1 ASC Speck IC50
MEASURED_PARAMETER: pIC50
Numbers only, as −log10 of the molar value.

> print(dat)
                                   molecule  readout.number
1  CC1(C)COc2c(S(=O)(=NC(=O)Nc3c4c(cc5c3CCC5)CCC4)NC#N)cnn2C1 (racemic)            6.44

// for each molecule in input: emit pIC50
1. CNC1CCn2ncc(S(N)(=O)=NC(=O)Nc3c4c(cc5c3CCC5)CCC4)c2OC1 (single isomer, unassigned) [Example 131]
2. CNC1COc2c(S(N)(=O)=NC(=O)Nc3c(C(C)C)cc(F)cc3C(C)C)cnn2C1 (single isomer, unassigned) [Example 27]
3. COc1cc(-c2cc(F)cc(C(C)C)c2NC(=O)N=S(N)(=O)c2cnn3c2OCCC3)ccn1 (single isomer, unassigned) [Example 119]
4. CC1CCc2cc3c(c(NC(=O)N=S(N)(=O)c4cnn5c4OCCC5)c21)CCC3 (single isomer, unassigned) [Example 128]

1: 6.04; 2: 6.70; 3: 7.24; 4: 5.77

Identify pIC50 associated with the molecule CC(C)c1cc(F)cc(C(C)C)c1NC(=O)N=S(N)(=O)c1cnn2c1OCCC2 (single isomer, unassigned)
5.03

Origin of the recorded values: patent US12234245B2
